Numbers sourced from patent US9173898B2.

# System: CHO cells
# ASSAY_METHOD_TEXT: CHO cell cytotoxicity assay in 1536-well format (ATP content counter-screen)
# Type: cell-based, Chinese hamster
# MEASUREMENT_PARAMETERS: Cricetulus griseus, CHO; concentration at which 50% of DMSO control ATP levels are detected; 48 hours

- COMPOUND: "CO[C@@H]1[C@H](OC(=O)/C=C/C=C/C=C/C=C/C(=O)O)CC[C@]2(CO2)[C@H]1[C@@]1(C)O[C@@H]1CC=C(C)C"
  IC50: "> 100 µM"
- COMPOUND: "Oc1ccc(/C=C\\c2cc(O)cc(O)c2)cc1"
  IC50: "39.2 µM"
- COMPOUND: "COC(=O)N/N=C/c1c[n+]([O-])c2ccccc2[n+]1[O-]"
  IC50: "> 100 µM"
- COMPOUND: "CN(C)C(=S)SSC(=S)N(C)C [Tetramethylthiur am disulfide, tetramethylthiuram disulfide]"
  IC50: "0.52 µM"
- COMPOUND: "CC(=O)Nc1ncc([N+](=O)[O-])s1 [Nithiamide]"
  IC50: "> 100 µM"
- COMPOUND: "O=C(Nc1ccccc1)c1cc([N+](=O)[O-])ccc1Cl"
  IC50: "> 100 µM"
- COMPOUND: "O=C(Nc1ncc([N+](=O)[O-])s1)c1cccs1"
  IC50: "> 100 µM"
- COMPOUND: "COC(COC(N)=O)C1=C(N2CC2)C(=O)C(C)=C(N2CC2)C1=O (stereo not drawn)"
  IC50: "0.58 µM"
- COMPOUND: "CCCOc1ccc2nc(NC(=O)OC)sc2c1"
  IC50: "> 100 µM"
